system: L02; experiment: Cytotoxicity against human L02 cells assessed as increase in LDH leakage by LDH assay; type: cell-based
measurement kind: Activity

{"compound": "C[C@@H]1O[C@@H](O[C@H]2[C@H](O[C@H]3CC[C@]4(C)[C@H]5CC=C6[C@@H]7CC(C)(C)CC[C@]7(C(=O)O)CC[C@@]6(C)[C@]5(C)CC[C@H]4C3(C)C)OC[C@H](O[C@@H]3O[C@H](CO)[C@@H](O)[C@H](O)[C@H]3O)[C@@H]2O)[C@H](O)[C@H](O)[C@H]1O [HEDERACOLCHISIDE A1]", "study system": "L02", "measurement kind": "Activity", "recorded value": "Toxic"}
{"compound": "C[C@@H]1O[C@@H](O[C@H]2[C@H](O[C@H]3CC[C@]4(C)[C@H]5CC=C6[C@@H]7CC(C)(C)CC[C@]7(C(=O)O)CC[C@@]6(C)[C@]5(C)CC[C@H]4C3(C)C)OC[C@H](O)[C@@H]2O)[C@H](O)[C@H](O)[C@H]1O", "study system": "L02", "measurement kind": "Activity", "recorded value": "Toxic"}
{"compound": "C[C@@H]1O[C@@H](O[C@H]2[C@H](O[C@H]3CC[C@]4(C)[C@H]5CC=C6[C@@H]7CC(C)(C)CC[C@]7(C(=O)O)CC[C@@]6(C)[C@]5(C)CC[C@H]4C3(C)C)OC[C@H](O)[C@@H]2O[C@@H]2O[C@H](CO)[C@@H](O)[C@H](O)[C@H]2O)[C@H](O)[C@H](O)[C@H]1O", "study system": "L02", "measurement kind": "Activity", "recorded value": "Toxic"}
